Source of measurements: patent US7659400B2

# reported Biodistribution: muscle; entries follow
test system: EMT-6 tumors; assay: Biodistribution of 18F-labeled ligands in mice bearing EMT-6 tumors; format: in vivo, female Balb/c mice; details: 5 min after i.v. injection
Kindly answer with a numeric value in %ID/g, unit omitted.

Known results for compounds:
>  <COMPOUND>
COc1cc2c(cc1OC)CN(CCCCNC(=O)c1cc(I)cc(OC)c1OCC[18F])CC2 [[^18F]3f]

>  <MEASUREMENT_KIND>
Biodistribution: muscle

>  <OBSERVED>
2.50

$$$$
>  <COMPOUND>
COc1cc2c(cc1OC)CN(CCCCNC(=O)c1cc(I)ccc1OCC[18F])CC2 [[^18F]3e]

>  <MEASUREMENT_KIND>
Biodistribution: muscle

>  <OBSERVED>
1.52

$$$$
>  <COMPOUND>
COc1cc2c(cc1OC)CN(CCCCNC(=O)c1cc(Br)ccc1OCC[18F])CC2 [[^18F]3d]

>  <MEASUREMENT_KIND>
Biodistribution: muscle

>  <OBSERVED>
1.95

$$$$

Could you share which Biodistribution: muscle value was measured for COc1cc2c(cc1OC)CN(CCCCNC(=O)c1cc(C)ccc1OCC[18F])CC2 [[^18F]3c] ?
1.86

---

# reported Biodistribution: brain; entries follow
test system: EMT-6 tumors; test: Biodistribution of 18F-labeled ligands in mice bearing EMT-6 tumors; assay type: in vivo, female Balb/c mice; conditions: 5 min after i.v. injection
Kindly answer with a numeric value in %ID/g, unit omitted.

>  <COMPOUND>
COc1cc2c(cc1OC)CN(CCCCNC(=O)c1cc(I)cc(OC)c1OCC[18F])CC2 [[^18F]3f]

>  <TESTED_SYSTEM>
EMT-6 tumors

>  <OBSERVED>
0.71

$$$$
>  <COMPOUND>
COc1cc2c(cc1OC)CN(CCCCNC(=O)c1cc(Br)ccc1OCC[18F])CC2 [[^18F]3d]

>  <TESTED_SYSTEM>
EMT-6 tumors

>  <OBSERVED>
1.09

$$$$
>  <COMPOUND>
COc1cc2c(cc1OC)CN(CCCCNC(=O)c1cc(I)ccc1OCC[18F])CC2 [[^18F]3e]

>  <TESTED_SYSTEM>
EMT-6 tumors

>  <OBSERVED>
0.55

$$$$

Consider the record given below.
// fetch EMT-6 tumors Biodistribution: brain for COc1cc2c(cc1OC)CN(CCCCNC(=O)c1cc(C)ccc1OCC[18F])CC2 [[^18F]3c]
0.76

---

tested on: EMT-6 tumors; assay: Biodistribution of 18F-labeled ligands in mice bearing EMT-6 tumors; type: in vivo, female Balb/c mice; conditions: 30 min after i.v. injection
MEASUREMENT_KIND: Biodistribution: heart (%ID/g)
Kindly answer with a numeric value in %ID/g, unit omitted.

Known results for compounds:
>  <COMPOUND>
COc1cc2c(cc1OC)CN(CCCCNC(=O)c1cc(I)cc(OC)c1OCC[18F])CC2 [[^18F]3f]

>  <MEASUREMENT_KIND>
Biodistribution: heart

>  <OBSERVED>
1.54

$$$$
>  <COMPOUND>
COc1cc2c(cc1OC)CN(CCCCNC(=O)c1cc(Br)ccc1OCC[18F])CC2 [[^18F]3d]

>  <MEASUREMENT_KIND>
Biodistribution: heart

>  <OBSERVED>
1.55

$$$$

Could you share which Biodistribution: heart value was measured for COc1cc2c(cc1OC)CN(CCCCNC(=O)c1cc(I)ccc1OCC[18F])CC2 [[^18F]3e] ?
2.37

Could you share which Biodistribution: heart value was measured for COc1cc2c(cc1OC)CN(CCCCNC(=O)c1cc(C)ccc1OCC[18F])CC2 [[^18F]3c] ?
1.15

---

tested on: EMT-6 tumors; assay: Biodistribution of 18F-labeled ligands in mice bearing EMT-6 tumors; type: in vivo, female Balb/c mice; conditions: 5 min after i.v. injection
# reported Biodistribution: blood; entries follow
Kindly answer with a numeric value in %ID/g, unit omitted.

Known results for compounds:
>  <COMPOUND>
COc1cc2c(cc1OC)CN(CCCCNC(=O)c1cc(C)ccc1OCC[18F])CC2 [[^18F]3c]

>  <MEASUREMENT_KIND>
Biodistribution: blood

>  <UNIT_STRING>
%ID/g

>  <OBSERVED>
2.49

$$$$
>  <COMPOUND>
COc1cc2c(cc1OC)CN(CCCCNC(=O)c1cc(I)cc(OC)c1OCC[18F])CC2 [[^18F]3f]

>  <MEASUREMENT_KIND>
Biodistribution: blood

>  <UNIT_STRING>
%ID/g

>  <OBSERVED>
1.82

$$$$
>  <COMPOUND>
COc1cc2c(cc1OC)CN(CCCCNC(=O)c1cc(I)ccc1OCC[18F])CC2 [[^18F]3e]

>  <MEASUREMENT_KIND>
Biodistribution: blood

>  <UNIT_STRING>
%ID/g

>  <OBSERVED>
4.60

$$$$

Consider the record given below.
Could you share which Biodistribution: blood value was measured for COc1cc2c(cc1OC)CN(CCCCNC(=O)c1cc(Br)ccc1OCC[18F])CC2 [[^18F]3d] ?
3.57

---

# reported Biodistribution: brain; entries follow
system: EMT-6 tumors; test: Biodistribution of 18F-labeled ligands in mice bearing EMT-6 tumors; format: in vivo, female Balb/c mice; conditions: 120 min after i.v. injection
Kindly answer with a numeric value in %ID/g, unit omitted.

Known results for compounds:
>  <COMPOUND>
COc1cc2c(cc1OC)CN(CCCCNC(=O)c1cc(I)cc(OC)c1OCC[18F])CC2 [[^18F]3f]

>  <MEASUREMENT_KIND>
Biodistribution: brain

>  <UNIT_STRING>
%ID/g

>  <OBSERVED>
0.08

$$$$
>  <COMPOUND>
COc1cc2c(cc1OC)CN(CCCCNC(=O)c1cc(I)ccc1OCC[18F])CC2 [[^18F]3e]

>  <MEASUREMENT_KIND>
Biodistribution: brain

>  <UNIT_STRING>
%ID/g

>  <OBSERVED>
0.37

$$$$
>  <COMPOUND>
COc1cc2c(cc1OC)CN(CCCCNC(=O)c1cc(Br)ccc1OCC[18F])CC2 [[^18F]3d]

>  <MEASUREMENT_KIND>
Biodistribution: brain

>  <UNIT_STRING>
%ID/g

>  <OBSERVED>
0.20

$$$$

Consider the record given below.
Could you share which Biodistribution: brain value was measured for COc1cc2c(cc1OC)CN(CCCCNC(=O)c1cc(C)ccc1OCC[18F])CC2 [[^18F]3c] ?
0.12

---

# reported Biodistribution: bone; entries follow
system: EMT-6 tumors; assay: Biodistribution of 18F-labeled ligands in mice bearing EMT-6 tumors; format: in vivo, female Balb/c mice; conditions: 5 min after i.v. injection
Report as: number unit

Known results for compounds:
>  <COMPOUND>
COc1cc2c(cc1OC)CN(CCCCNC(=O)c1cc(C)ccc1OCC[18F])CC2 [[^18F]3c]

>  <OBSERVED>
2.49 ± 0.19 %ID/g

$$$$
>  <COMPOUND>
COc1cc2c(cc1OC)CN(CCCCNC(=O)c1cc(I)ccc1OCC[18F])CC2 [[^18F]3e]

>  <OBSERVED>
2.59 ± 0.28 %ID/g

$$$$
>  <COMPOUND>
COc1cc2c(cc1OC)CN(CCCCNC(=O)c1cc(Br)ccc1OCC[18F])CC2 [[^18F]3d]

>  <OBSERVED>
2.90 ± 0.39 %ID/g

$$$$

// fetch EMT-6 tumors Biodistribution: bone for COc1cc2c(cc1OC)CN(CCCCNC(=O)c1cc(I)cc(OC)c1OCC[18F])CC2 [[^18F]3f]
2.23 ± 0.56 %ID/g

---

Tested on: EMT-6 tumors
Assay: Biodistribution of 18F-labeled ligands in mice bearing EMT-6 tumors
Assay type: in vivo, female Balb/c mice
Settings: 120 min after i.v. injection
Protocol: This example illustrates in vivo evaluation of compounds of the present teachings. All animal experiments were conducted in compliance with the Guidelines for the Care and Use of Research Animals established by Washington University's Animal Studies Committee. […] After counting, the percentage of the injected dose per gram of tissue (%ID/g) was calculated. The tumor/organ ratios were calculated by dividing the %ID/g of the tumor by the %ID/g of each organ.
MEASUREMENT_KIND: Biodistribution: lung (%ID/g)
Kindly answer with a numeric value in %ID/g, unit omitted.

>  <COMPOUND>
COc1cc2c(cc1OC)CN(CCCCNC(=O)c1cc(I)cc(OC)c1OCC[18F])CC2 [[^18F]3f]

>  <MEASUREMENT_KIND>
Biodistribution: lung

>  <OBSERVED>
0.74

$$$$
>  <COMPOUND>
COc1cc2c(cc1OC)CN(CCCCNC(=O)c1cc(Br)ccc1OCC[18F])CC2 [[^18F]3d]

>  <MEASUREMENT_KIND>
Biodistribution: lung

>  <OBSERVED>
0.51

$$$$

Could you share which Biodistribution: lung value was measured for COc1cc2c(cc1OC)CN(CCCCNC(=O)c1cc(C)ccc1OCC[18F])CC2 [[^18F]3c] ?
0.43

Could you share which Biodistribution: lung value was measured for COc1cc2c(cc1OC)CN(CCCCNC(=O)c1cc(I)ccc1OCC[18F])CC2 [[^18F]3e] ?
1.36
